tgt: actomyosin (Dd myosin-2 M765-2R with F-actin) (Dictyostelium discoideum)
Construct: M765-2R: mhcA 1-765 fused to Dd alpha-actinin repeats (codons 264-505), C-terminal Asp-Ala-Leu-(His)8 tag kept, expressed in D. discoideum AX3-Orf+; in complex with F-actin purified from rabbit skeletal muscle; with Actin, alpha skeletal muscle (Oryctolagus cuniculus)
Sequence (P08799 whole entry, looked up, the tested form may be a part): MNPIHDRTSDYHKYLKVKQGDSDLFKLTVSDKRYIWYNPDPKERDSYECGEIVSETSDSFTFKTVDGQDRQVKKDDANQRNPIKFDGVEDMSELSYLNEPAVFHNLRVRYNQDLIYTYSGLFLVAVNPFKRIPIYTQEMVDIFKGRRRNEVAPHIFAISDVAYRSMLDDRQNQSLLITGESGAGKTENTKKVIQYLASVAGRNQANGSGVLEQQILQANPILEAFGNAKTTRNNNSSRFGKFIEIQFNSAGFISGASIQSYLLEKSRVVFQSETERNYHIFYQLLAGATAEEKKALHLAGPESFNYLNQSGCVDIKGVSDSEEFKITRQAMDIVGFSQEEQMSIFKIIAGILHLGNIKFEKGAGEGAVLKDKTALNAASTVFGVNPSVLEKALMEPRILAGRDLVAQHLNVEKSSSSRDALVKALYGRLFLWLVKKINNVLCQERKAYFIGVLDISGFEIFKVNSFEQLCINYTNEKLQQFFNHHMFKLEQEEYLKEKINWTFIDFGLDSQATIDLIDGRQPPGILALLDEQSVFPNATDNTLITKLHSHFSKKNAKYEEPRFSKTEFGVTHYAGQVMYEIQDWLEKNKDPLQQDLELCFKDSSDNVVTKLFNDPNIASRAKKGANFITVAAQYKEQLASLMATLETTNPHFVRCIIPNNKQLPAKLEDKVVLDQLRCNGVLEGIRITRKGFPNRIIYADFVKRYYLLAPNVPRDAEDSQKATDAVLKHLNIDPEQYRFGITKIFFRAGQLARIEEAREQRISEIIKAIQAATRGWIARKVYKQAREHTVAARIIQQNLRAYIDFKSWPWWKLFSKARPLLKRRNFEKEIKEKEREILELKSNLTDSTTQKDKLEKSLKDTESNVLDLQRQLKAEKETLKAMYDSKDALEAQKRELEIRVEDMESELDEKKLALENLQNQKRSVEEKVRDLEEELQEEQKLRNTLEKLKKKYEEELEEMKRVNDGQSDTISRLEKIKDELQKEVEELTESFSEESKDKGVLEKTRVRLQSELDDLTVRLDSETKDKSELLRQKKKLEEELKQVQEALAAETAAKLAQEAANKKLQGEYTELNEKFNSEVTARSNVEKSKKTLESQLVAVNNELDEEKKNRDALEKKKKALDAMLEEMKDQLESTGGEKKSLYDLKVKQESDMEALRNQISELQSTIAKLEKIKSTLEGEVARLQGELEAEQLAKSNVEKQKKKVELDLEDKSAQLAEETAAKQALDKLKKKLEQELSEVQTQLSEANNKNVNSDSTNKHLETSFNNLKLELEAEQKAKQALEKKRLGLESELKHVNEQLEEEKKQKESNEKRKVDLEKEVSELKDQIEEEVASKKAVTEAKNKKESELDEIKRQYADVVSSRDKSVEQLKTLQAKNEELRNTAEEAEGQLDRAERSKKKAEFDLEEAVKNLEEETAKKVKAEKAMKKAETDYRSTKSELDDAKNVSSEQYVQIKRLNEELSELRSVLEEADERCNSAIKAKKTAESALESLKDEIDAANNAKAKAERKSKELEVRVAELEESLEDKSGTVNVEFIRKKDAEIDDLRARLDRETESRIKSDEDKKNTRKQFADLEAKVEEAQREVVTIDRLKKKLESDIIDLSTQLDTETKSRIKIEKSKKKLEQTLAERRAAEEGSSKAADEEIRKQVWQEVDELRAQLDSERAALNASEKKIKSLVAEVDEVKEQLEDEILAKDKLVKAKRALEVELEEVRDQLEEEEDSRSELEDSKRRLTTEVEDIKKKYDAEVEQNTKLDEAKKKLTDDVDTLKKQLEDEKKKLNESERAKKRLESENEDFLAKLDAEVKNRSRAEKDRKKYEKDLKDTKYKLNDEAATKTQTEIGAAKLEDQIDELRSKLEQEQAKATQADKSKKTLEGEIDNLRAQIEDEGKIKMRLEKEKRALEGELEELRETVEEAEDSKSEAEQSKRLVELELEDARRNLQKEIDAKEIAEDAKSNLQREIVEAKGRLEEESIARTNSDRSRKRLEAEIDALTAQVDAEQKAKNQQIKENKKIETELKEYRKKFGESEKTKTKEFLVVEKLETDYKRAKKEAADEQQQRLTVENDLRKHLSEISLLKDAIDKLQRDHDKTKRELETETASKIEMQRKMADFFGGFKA
test-summary: stopped-flow light scattering, ADP inhibition of ATP-induced actomyosin dissociation
conditions: read-out: Dd myosin-2 (M765-2R construct) / WT
experimental-readout: pKd
# pKd is unitless: minus log10 of the molar concentration; print number only

Using the record for Nc1ncnc2c1ncn2[C@@H]1O[C@H](COP(=O)(O)OP(=O)(O)O)[C@@H](O)[C@H]1O [ADP] , report its pKd. 4.13

Data origin, for the record: paper PMC5550493
